Where do the numbers come from? From PubChem BioAssay (NCI).

Each entry below carries its recorded growth.
- System: EKVX NSCLC
- methodDescription: NCI-60 one-dose screen, 48 h (100 = growth as untreated, 0 = no growth, -100 = all killed)
- experimentalContext: 10 µM unless noted
This is part of a sample that, as a whole, favours compounds with a hit. Of some 83,000 tested, about 20% had one in any assay. Active and inactive are the calls of the source. Rule for the calls: active = growth percent below 10; inactive = the rest.
measuredParameter: growth

O=C1Nc2ccccc2/C1=C/c1cccn1CCCCCn1c2ccccc2c(=O)c2ccccc21 :: 71.8% (inactive)
COc1cc(OC)cc(-c2ccc(-c3ccc(C(=N)N)cn3)s2)c1 :: 95.6% (inactive)
O=C(Cn1cc(CN2CCN(c3ccnc4cc(Cl)ccc34)CC2)nn1)Nc1cccc([N+](=O)[O-])c1 :: 94.4% (inactive)
CCOc1nc(-c2ccccc2)cc2c(O)c(C(=O)N/N=C/c3ccc(N(C)C)cc3)[nH]c(=O)c12 :: 97.5% (inactive)
O=C1/C(=C/c2cn(-c3ccccc3)nc2-c2ccccc2)SC(=S)N1c1ccc(Cl)cc1 :: 81.9% (inactive)
COc1ccc(Cl)cc1Nc1nc(C(F)(F)F)ccc1C(=O)N/N=C/c1ccc(N(C)C)cc1 :: 121% (inactive)
Nc1n[nH]c2cccc(C#Cc3cccc(NC(=O)c4ccc(N5CCOCC5)c(C(F)(F)F)c4)c3)c12 :: 18.4% (inactive)
Nc1ccc(-c2ccc(N)c(Br)c2)cc1Br :: 59% (inactive)
C=C1C(=O)O[C@@H]2[C@H]3[C@H](COC(C)=O)[C@@H](OC(C)=O)C[C@H]3C(=C)[C@@H](O)C[C@@H]12 :: 110% (inactive)
O=C(NCc1ccc(Cn2c(=O)sn(-c3ccc(Cl)cc3)c2=O)cc1)OCc1ccc2c(Cl)cc(Cl)c(O)c2n1 :: 44% (inactive)
COC1=CC(=O)C(OC)=C(O)C1=O :: 98.1% (inactive)
COc1ccc(C2Nc3nc(SC)nc(N)c3N=C3c4ccccc4CCC32)cc1 (centres undefined) :: 58.5% (inactive)
CCOC(=O)c1cc2c(n1Cc1cc(OC)cc(OC)c1Br)-c1nc(NC(C)=O)sc1CCC2 :: 58.6% (inactive)
O=C1OCC2=C1C(c1cccc(C(F)(F)F)c1)c1cc3c(cc1N2CCO)OCCO3 (centres undefined) :: 49.1% (inactive)
COc1ccc(/C=C/C(=O)c2cc3c(N)c(C(=O)Nc4ccccc4)sc3nc2C)cc1 :: 47% (inactive)
CC(=O)N1N=C(c2ccc(Nc3nc(Nc4ccc(F)cc4)nc(Nc4ccc(Cl)cc4)n3)cc2)CC1c1ccc(N(C)C)cc1 (centres undefined) :: 43.1% (inactive)
CC(=NCc1ccccc1)c1ccc(O)cc1O :: 111% (inactive)
O=C1CCc2c(sc3[nH]c(=S)n(Cc4ccc(Cl)cc4)c(=O)c23)C1 :: -2.48% (active)
COc1ccc(-c2[nH]c3ccccc3c2-c2ccc(OC)cc2)cc1 :: 73.8% (inactive)

---

- System: NCI-H522 lung
- methodDescription: NCI-60 one-dose screen, 48 h
- experimentalContext: 10 µM unless noted
The panel holds about 83,000 compounds, 20% with a hit somewhere; the sample as a whole holds those more often. The source made the active and inactive calls. How the source made its calls: active means growth percent below 10; inactive means the rest.
Labels: true (1) = active, false (0) = inactive

Cc1ccc(-c2nc([P+](c3ccccc3)(c3ccccc3)c3ccccc3)c(Nc3ccccc3)o2)cc1 :: true (1)
O=C1c2cc3c(cc2-c2c1c1ccc(Cl)cc1c(=O)n2CCCn1ccnc1)OCO3 :: true (1)
COc1ccc2c(c1)CCNC21C(=O)Nc2c(Br)cc(Br)cc21 (stereo not drawn) :: false (0)
CC(C)=CCc1cc(O)c(O)c2oc3cc(O)cc(O)c3c(=O)c12 :: false (0)
O=C(N/N=C/c1ccc(O)cc1O)c1cccc(Nc2ccnc(C(F)(F)F)c2)c1 :: false (0)
CCCCCCCCCCCCC[C@H](O)C[C@H](O)[C@H](C)N :: false (0)
COc1ccc(Cn2cc(C(=O)Nc3cccnc3Nc3ccccc3)nn2)cc1 :: false (0)
O=C(c1cccc(Br)c1)N1CCN(c2ccnc3cc(Cl)ccc23)CC1 :: false (0)
Cc1cnc(C(=O)NNc2nc3sc4c(c3c(=O)[nH]2)C(C)CCC4)cn1 (stereo not drawn) :: false (0)
C/C=C(/C)C(=O)O[C@@H]1CC(C)(C)CC2C34OC(=O)[C@@]21CC[C@@]3(C)[C@]1(C)CCC2C(C)(C)C(=O)CC[C@]2(C)C1C[C@@H]4Cl (stereo partly drawn) :: false (0)
O=C(/C=C/c1ccc(F)cc1)Nc1ncc(Cc2ccc(F)cc2)s1 :: false (0)
O=C1C(c2c[nH]c3ccccc23)=C(c2coc3cc(Br)ccc23)C(=O)N1O :: false (0)
COc1cccc(C2C(C#N)=C(N)Oc3cc(OCCCCCC[P+](c4ccccc4)(c4ccccc4)c4ccccc4)ccc32)c1 (stereo not drawn) :: true (1)
Nc1nc(N)c2c(n1)NC(c1ccc(Cl)cc1)CC(c1cccc(Nc3ccncc3)c1)=N2 (stereo not drawn) :: false (0)
CN(C)CCN1C(=O)c2c(c3c4ccccc4n4c3c3c2c2ccccc2n3C2CC(O)C(O)C4(C)O2)C1=O (stereo not drawn) :: true (1)
O=C1/C(=C/c2ccccc2)CN(C(=O)C(Cl)Cl)C/C1=C\c1ccccc1 :: true (1)
C#Cc1cc(C(=O)Nc2ccc(CN3CCN(C)CC3)c(C(F)(F)F)c2)ccc1C :: false (0)
COc1cc(N=Nc2ccc(O)c3ncccc23)c2ncccc2c1 :: false (0)
Cc1nc2sc(C(=O)Nc3cccc4ncccc34)c(N)c2cc1C(C)O (stereo not drawn) :: false (0)
Nc1c(C(=O)Nc2ccncc2)sc2nc3c(cc12)CCCCCCCC3 :: true (1)
COc1cc(CO)cc2cc3ccccc3nc12 :: false (0)
CCC(=O)Oc1cc(Cl)c(Cl)cc1Cl :: false (0)
COC(=O)c1nc(-c2ccc(C)cc2)oc1Sc1ccc(C)cc1 :: false (0)
COc1ccc(Nc2nn3c(SCC(=O)c4ccc(C)cc4)nnc3s2)cc1 :: false (0)
O=C(NNc1ccccc1)C1CCCN1 (stereo not drawn) :: false (0)
O=C1Nc2ccccc2/C1=C/c1cccn1CCCCCn1c2ccccc2c(=O)c2ccccc21 :: false (0)
COc1ccc(/C=N/NC(=O)CN2CCN(c3cc4c(cc3F)c(=O)c(C(=O)O)cn4C3CC3)CC2)cc1O :: false (0)
COc1ccc(/C=N\Nc2nc(SCC(C)C)nc(-c3ccc(OC)cc3)c2C#N)cc1 :: false (0)
CN1CCN(CCNC(=O)c2cccc(CN3c4cccc5c4C(=Cc4cccnc43)N(C)C5=O)c2)CC1 :: false (0)
CCN(CC)CC(=O)Nc1ccc2ncnc(Nc3ccc(Oc4cccc(F)c4)c(Cl)c3)c2c1 :: false (0)
Cc1ccc(-c2nc3nc(-c4ccc(Br)cc4)nc(N4CCCNCC4)c3o2)cc1 :: false (0)
COc1cc2c(cc1OCCCOC1=C=C=C(c3ccc4c(c3)c3cc(-c5ccc(OCCCOc6cc7c(cc6OC)C(=O)N6CCC[C@H]6C=N7)cc5)ccc3n4S(=O)(=O)c3ccc(C)cc3)C=C1)N=C[C@@H]1CCCN1C2=O :: true (1)
CC1(C)C(N)=Nc2cc(OCCCCN3Cc4ccccc4C3)c(OCC3CC3)cc21 :: false (0)
CN(Cc1ccccc1)c1nc(Cl)c(C2CC(c3ccc4c(c3)OCO4)=NN2c2cc(Cl)cc(Cl)c2)s1 (stereo not drawn) :: false (0)
C#CCOc1cccc(Nc2ncc3ncn(C4CCN(C(=O)CCl)C4)c3n2)c1 (stereo not drawn) :: true (1)
O=C1C(Nc2ccc(Cl)cc2)=C(I)C(=O)c2ncccc21 :: true (1)
C=C(C)[C@@H]1CC[C@]2(C)[C@H](CC(=O)N[C@H]3[C@@H]4C[C@](C)(C(=O)OC)CC[C@]4(C)CC[C@]32C)[C@@]1(C)CCC#N :: false (0)
CCN1C(=O)/C(=c2\sc3n(c2=O)C2C(NN=3)N(CC)C(=O)N2CC)c2ccccc21 (stereo not drawn) :: false (0)
